# test target: KRAS Q61H (Homo sapiens (Human), UniProt P01116+P62937, Q61H)
# Sequence (P01116-2 other isoform, or with tags, fused parts or gaps Q61H): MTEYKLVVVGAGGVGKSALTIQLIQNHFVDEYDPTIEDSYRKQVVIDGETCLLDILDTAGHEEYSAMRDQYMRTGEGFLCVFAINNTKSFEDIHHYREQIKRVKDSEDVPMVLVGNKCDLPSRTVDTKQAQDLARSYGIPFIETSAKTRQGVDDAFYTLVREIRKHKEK
# Sequence (P62937 whole entry): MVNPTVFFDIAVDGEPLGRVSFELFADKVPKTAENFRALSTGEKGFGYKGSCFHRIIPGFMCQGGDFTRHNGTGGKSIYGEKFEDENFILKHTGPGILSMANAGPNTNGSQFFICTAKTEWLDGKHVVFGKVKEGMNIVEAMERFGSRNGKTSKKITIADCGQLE
# run description: Ras-Raf (BRAF RBD) disruption / FRET / MOA assay, KRAS Q61H
# Format: biochemical
# applied conditions: Ras-Raf disruption/FRET/MOA assay; class symbols; read-out: KRAS Q61H FRET data IC50
assay readout: IC50

Examples from the recorded data:
[[record]]
molecule = "C=CC(=O)N1CCOC2(CCN(C(=O)N(C)[C@H](C(=O)N[C@H]3Cc4cccc(n4)-c4ccc5c(c4)c(c(-c4cccnc4[C@H](C)OC)n5CC(F)(F)F)CC(C)(C)COC(=O)[C@@H]4CCCN(N4)C3=O)C(C)C)CC2)C1 (atropisomer, axis not shown)"
test_target = "KRAS Q61H (Homo sapiens (Human), UniProt P01116+P62937, Q61H)"
reported_result = "100 to 1000 nM"

[[record]]
molecule = "C=CC(=O)N1CC[C@H](C(=O)N(C)[C@H](C(=O)N[C@H]2Cc3cc(ccn3)-c3ccc4c(c3)c(c(-c3cccnc3COC)n4CC)CC(C)(C)COC(=O)[C@@H]3CCCN(N3)C2=O)C(C)C)C1"
test_target = "KRAS Q61H (Homo sapiens (Human), UniProt P01116+P62937, Q61H)"
reported_result = "1000 to 10000 nM"

[[record]]
molecule = "CCn1c(-c2cccnc2[C@H](C)OC)c2c3cc(ccc31)-c1cccc(c1)C[C@H](NC(=O)[C@@H](COC1CN(C(=O)C#CC(C)(C)N(C)CCO)C1)C(C)C)C(=O)N1CCC[C@H](N1)C(=O)OCC(C)(C)C2 (atropisomer, axis not shown)"
test_target = "KRAS Q61H (Homo sapiens (Human), UniProt P01116+P62937, Q61H)"
reported_result = "> 10000 nM"


Q. What does the record list as IC50 for C=CC(=O)N1CC[C@@]2(C1)OCN([C@H](C(=O)N[C@H]1Cc3cccc(c3)-c3ccc4c(c3)c(c(-c3cccnc3[C@H](C)OC)n4CC)CC(C)(C)COC(=O)[C@@H]3CCCN(N3)C1=O)C(C)C)C2=O (atropisomer, axis not shown) ?
A. 100 to 1000 nM
